Each entry below lists one item and its recorded aptazyme ON/OFF ratio value.
B1: Pistol ribozyme (parent)
chain: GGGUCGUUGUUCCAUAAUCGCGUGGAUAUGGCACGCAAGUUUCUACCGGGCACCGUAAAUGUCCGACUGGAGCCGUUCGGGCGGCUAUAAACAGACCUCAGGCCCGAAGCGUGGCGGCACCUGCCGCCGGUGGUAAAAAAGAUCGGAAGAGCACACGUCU

variants of: B1; experiment: aptazyme ON/OFF ratio, guanine; higher = stronger switching; co-transcriptional cleavage with and without guanine

mutant_name	aptazyme ON/OFF ratio
U7G U8C C12A C13G	1.1
U8A G9U U10A U11A	1.67
U10C C12A C13G	1.19
U7A U8A G9U U10A U11G C12A C13A	1.07
U7A U8G G9U U10A U11G C12G	1.19
U7G U8C G9U U10G U11C C12G C13U	1.29
U7G G9C C12A	1.99
U7A U8A G9U C12G C13G	1.27
U7A U8A G9C U10G C13G	1.29
U8C U10A U11G C13U	1.23
U7A U8A U10A U11G C13G	1.28
U7G U8A G9U U10G C12U	1.13
U7A U8A U11G C12G C13U	1.46
U7A U8G G9C C12A	1.78
U10A C13U	1.08
U7A U8C G9C U10C U11A C12U C13A	1.04
U7A G9C U10A U11C C12U C13G	1.13
U7G U8G U10G U11A C12U C13U	1.17
U7G U8A G9U U10G U11G C12A C13G	1.09
U7C U8A G9U U10A U11A C12U C13G	1.21
U8A G9A U10A C12G C13A	1.25
U7G U8A U10G C12A C13G	1.11
